Target: human TRPV4 (Homo sapiens)
Construct: host or cells: tetracycline-inducible Flp-In T-REx 293 cells
Sequence (Q9HBA0 whole entry): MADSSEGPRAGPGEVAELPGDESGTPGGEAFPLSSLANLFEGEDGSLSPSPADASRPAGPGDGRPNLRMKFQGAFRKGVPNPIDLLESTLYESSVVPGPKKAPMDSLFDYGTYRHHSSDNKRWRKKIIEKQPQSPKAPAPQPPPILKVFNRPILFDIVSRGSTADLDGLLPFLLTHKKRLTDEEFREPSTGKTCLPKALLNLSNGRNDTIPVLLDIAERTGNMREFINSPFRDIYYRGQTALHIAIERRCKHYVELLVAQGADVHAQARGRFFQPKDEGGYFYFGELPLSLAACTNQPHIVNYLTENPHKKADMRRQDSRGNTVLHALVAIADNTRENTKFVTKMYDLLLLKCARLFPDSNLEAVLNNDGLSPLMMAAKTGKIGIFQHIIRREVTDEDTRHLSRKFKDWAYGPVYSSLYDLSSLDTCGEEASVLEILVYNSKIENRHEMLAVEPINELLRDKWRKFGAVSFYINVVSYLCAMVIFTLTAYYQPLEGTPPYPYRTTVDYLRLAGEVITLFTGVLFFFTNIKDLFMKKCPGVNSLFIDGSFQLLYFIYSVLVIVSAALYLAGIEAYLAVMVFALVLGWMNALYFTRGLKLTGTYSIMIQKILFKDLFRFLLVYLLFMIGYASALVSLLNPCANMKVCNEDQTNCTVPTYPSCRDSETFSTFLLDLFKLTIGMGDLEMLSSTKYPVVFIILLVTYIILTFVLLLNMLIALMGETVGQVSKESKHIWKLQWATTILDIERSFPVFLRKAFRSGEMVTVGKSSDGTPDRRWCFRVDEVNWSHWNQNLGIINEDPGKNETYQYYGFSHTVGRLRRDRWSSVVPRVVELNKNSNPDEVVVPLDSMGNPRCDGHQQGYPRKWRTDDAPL
Test: Hypotonicity-induced Ca2+ influx (Fluo-4, FDSS)
Type: cell-based
Settings: Flp-In T-REx 293 cells stably expressing human TRPV4, compounds listed by potency bin (<10 nM Tables 96-1/96-2, <3 nM Table 97)
Experimental: Hypotonicity-Induced Ca^2+ Influx TRPV4 channel activation/opening results in an influx of Ca^2+ (Liedtke, W. et al., 2000 (NPL 1)). The resulting changes in intracellular calcium are monitored using a Ca^2+ sensitive fluorescent dye Fluo-4 (Invitrogen). Dye loaded cells are treated with the test compounds for 5 minutes prior to the addition of a hypotonic solution and the inhibition of the hypotonicity-induced activation is recorded. […]
pIC50: −log10 of the molar value.
Measured pIC50 accompanies every entry in the list below.
property.name: pIC50

> print(dat)
                                    compound  measured.result
 1  CN(Cc1ccccc1)C(=O)c1csc(C2(c3nc4c(c(=O)[nH]3)CN(C(=O)[C@H](O)c3cccc(C(F)(F)F)c3)CCC4)CC2)c1           > 8.00
 2  O=C(C(O)c1cccc(-c2cc(C(F)(F)F)cc(C(F)(F)F)c2)c1)N1CCc2nc(C3(c4ccccc4)CC3)[nH]c(=O)c2C1 (centres unmarked)           > 8.00
 3  O=C([C@H](O)c1cccc(-c2ccc(F)c(Cl)c2)c1)N1CCCc2nc(C3(c4ccccc4)CC3)[nH]c(=O)c2C1           > 8.52
 4  O=C([C@H](O)c1cccc(C(F)(F)F)c1)N1CCCc2nc(C3(c4cccc(C5CCOCC5)c4)CC3)[nH]c(=O)c2C1           > 8.00
 5  Cc1ccc(-c2cccc([C@@H](O)C(=O)N3CCc4nc(C5(c6ccccc6)CC5)[nH]c(=O)c4C3)c2)cc1Cl           > 8.00
 6  CC(C)c1csc(C2(c3nc4c(c(=O)[nH]3)CN(C(=O)[C@H](O)c3cccc(C(F)(F)F)c3)CCC4)CC2)c1           > 8.52
 7  O=C([C@H](O)c1cccc(-c2cccc(F)c2)c1)N1CCCc2nc(C3(c4cccc(Cl)c4)CC3)[nH]c(=O)c2C1           > 8.52
 8  O=C(C(O)c1cccc(-c2ccc(Cl)cc2)c1)N1CCc2nc(C3(c4cccc(Cl)c4)CC3)[nH]c(=O)c2C1 (centres unmarked)           > 8.00
 9  O=C([C@H](O)c1cccc(-c2cccc(Cl)c2)c1)N1CCc2nc(C3(c4ccccc4)CC3)[nH]c(=O)c2C1           > 8.00
10  O=C(Cc1ccccc1Oc1ccccc1)N1CCCc2nc(C3(c4cccc(Cl)c4)CC3)[nH]c(=O)c2C1           > 8.00
11  O=C([C@H](O)c1cccc(Cl)c1)N1CCCc2nc(C3(c4cccc(-c5cccnc5)c4)CC3)[nH]c(=O)c2C1           > 8.00
12  O=C(Cc1cccc(-c2ccccc2)c1)N1CCCc2nc(C3(c4cccc(Cl)c4)CC3)[nH]c(=O)c2C1           > 8.00
13  CC(C)(C)CC(=O)N1CCN(c2ccc(-c3cccc(C4(c5nc6c(c(=O)[nH]5)CN(C(=O)[C@H](O)c5cccc(C(F)(F)F)c5)CCC6)CC4)c3)cn2)CC1           > 8.00
14  CC(C)c1cncc(C2(c3nc4c(c(=O)[nH]3)CN(C(=O)[C@H](O)c3cccc(-c5ccnc(C(F)(F)F)c5)c3)CCC4)CC2)c1           > 8.00
15  O=C(CN1CCc2ccccc21)N1CC=C(c2cccc(C3(c4nc5c(c(=O)[nH]4)CN(C(=O)[C@H](O)c4cccc(C(F)(F)F)c4)CCC5)CC3)c2)CC1           > 8.00
16  O=C([C@H](O)c1cccc(Cl)c1)N1CCCc2nc(C3(c4cc(-c5ccccc5)cs4)CC3)[nH]c(=O)c2C1           > 8.52
17  O=C([C@H](O)c1cccc(-c2cccc(Cl)c2)c1)N1CCCc2nc(C3(c4cc(-c5ccccc5)cs4)CC3)[nH]c(=O)c2C1           > 8.00
18  O=C([C@H](O)c1cccc(C(F)(F)F)c1)N1CCCc2nc(C3(c4cccc(-c5ccc(CN6CCc7c(Cl)cccc7C6)cc5)c4)CC3)[nH]c(=O)c2C1           > 8.00
19  O=C([C@H](O)c1cccc(Cl)c1)N1CCc2nc(C3(c4cccc(-c5ccccc5)c4)CC3)[nH]c(=O)c2C1           > 8.00
20  CC(C)c1cncc(C2(c3nc4c(c(=O)[nH]3)CN(C(=O)[C@H](O)c3cccc(-c5cccc(F)c5)c3)CCC4)CC2)c1           > 8.52
21  COc1ccc(-c2cccc(C3(c4nc5c(c(=O)[nH]4)CN(C(=O)[C@H](O)c4cccc(C(F)(F)F)c4)CCC5)CC3)c2)cn1           > 8.52
22  O=C([C@H](O)c1cccc(-c2csc3ccccc23)c1)N1CCCc2nc(C3(c4cccc(C5CCCCC5)c4)CC3)[nH]c(=O)c2C1           > 8.00
23  O=C([C@H](O)c1cccc(Cl)c1)N1CCc2nc(C3(c4cncc(C5CCCC5)c4)CC3)[nH]c(=O)c2C1           > 8.52
24  CC(C)c1cccc(C2(c3nc4c(c(=O)[nH]3)CN(C(=O)[C@H](O)c3cccc(-c5cccc(OC(F)(F)F)c5)c3)CCC4)CC2)c1           > 8.00
25  O=C(NC1CCCCC1)N1CC=C(c2cccc(C3(c4nc5c(c(=O)[nH]4)CN(C(=O)[C@H](O)c4cccc(C(F)(F)F)c4)CCC5)CC3)c2)CC1           > 8.52
26  O=C([C@H](O)c1cccc(C(F)(F)F)c1)N1CCc2nc(C3(c4cccc(-c5cccnc5)c4)CC3)[nH]c(=O)c2C1           > 8.00
